System: S180-bearing mice
Assay: Bio-distribution in tumor-bearing mice
Type: in vivo
Settings: S180-bearing mice, tail vein, 60 min
Method: The labeled solution (0.1 mL, 74 KBq) is injected into mice through the tail vein, and the injection time is recorded. Then the mice were killed by cervical dislocation at different time phases (30 minutes, 60 minutes, and 120 minutes), five mice for each time phase, and the organs of interest such as heart, liver, lung, kidney, spleen, stomach, muscle, blood and tumor are taken out after dissection, and measured with a γ-counter for the radioactive count of each organ. […]
Listed here are compounds together with their documented Tumor uptake.
Returns: string containing the numeric result and its unit.

Example compounds with recorded Tumor uptake:
compound="O=C(CC[N+]#[C][99Tc-5]([C]#[N+]CCC(=O)NC1C(O)OC(CO)C(O)C1O)([C]#[N+]CCC(=O)NC1C(O)OC(CO)C(O)C1O)([C]#[N+]CCC(=O)NC1C(O)OC(CO)C(O)C1O)([C]#[N+]CCC(=O)NC1C(O)OC(CO)C(O)C1O)[C]#[N+]CCC(=O)NC1C(O)OC(CO)C(O)C1O)NC1C(O)OC(CO)C(O)C1O (stereo not shown) [[^99mTc-(CN2DG)6]^+]" obsvalue="0.50 ± 0.07 % ID/g"
compound="O=C(CCCC[N+]#[C][99Tc-5]([C]#[N+]CCCCC(=O)NC1C(O)OC(CO)C(O)C1O)([C]#[N+]CCCCC(=O)NC1C(O)OC(CO)C(O)C1O)([C]#[N+]CCCCC(=O)NC1C(O)OC(CO)C(O)C1O)([C]#[N+]CCCCC(=O)NC1C(O)OC(CO)C(O)C1O)[C]#[N+]CCCCC(=O)NC1C(O)OC(CO)C(O)C1O)NC1C(O)OC(CO)C(O)C1O (stereo not shown) [[^99mTc-(CN4DG)6]^+]" obsvalue="0.88 ± 0.09 % ID/g"
compound="O=C(CCCCC[N+]#[C][99Tc-5]([C]#[N+]CCCCCC(=O)NC1C(O)OC(CO)C(O)C1O)([C]#[N+]CCCCCC(=O)NC1C(O)OC(CO)C(O)C1O)([C]#[N+]CCCCCC(=O)NC1C(O)OC(CO)C(O)C1O)([C]#[N+]CCCCCC(=O)NC1C(O)OC(CO)C(O)C1O)[C]#[N+]CCCCCC(=O)NC1C(O)OC(CO)C(O)C1O)NC1C(O)OC(CO)C(O)C1O (stereo not shown) [[^99mTc-(CN5DG)6]^+]" obsvalue="1.07 ± 0.21 % ID/g"

Consider the additional compound presented here.
Briefly, Tumor uptake measured for O=C(CCC[N+]#[C][99Tc-5]([C]#[N+]CCCC(=O)NC1C(O)OC(CO)C(O)C1O)([C]#[N+]CCCC(=O)NC1C(O)OC(CO)C(O)C1O)([C]#[N+]CCCC(=O)NC1C(O)OC(CO)C(O)C1O)([C]#[N+]CCCC(=O)NC1C(O)OC(CO)C(O)C1O)[C]#[N+]CCCC(=O)NC1C(O)OC(CO)C(O)C1O)NC1C(O)OC(CO)C(O)C1O (stereo not shown) [[^99mTc-(CN3DG)6]^+] : 1.00 ± 0.17 % ID/g

* * *

Test: Determination of the lipid-water partition coefficient (n-octanol/PBS)
Format: physicochemical
Below: a set of entries, each annotated with reported Log P (lipid-water partition coefficient).

// below: answered compounds
compound="O=C(CCCCC[N+]#[C][99Tc-5]([C]#[N+]CCCCCC(=O)NC1C(O)OC(CO)C(O)C1O)([C]#[N+]CCCCCC(=O)NC1C(O)OC(CO)C(O)C1O)([C]#[N+]CCCCCC(=O)NC1C(O)OC(CO)C(O)C1O)([C]#[N+]CCCCCC(=O)NC1C(O)OC(CO)C(O)C1O)[C]#[N+]CCCCCC(=O)NC1C(O)OC(CO)C(O)C1O)NC1C(O)OC(CO)C(O)C1O (stereo not shown) [[^99mTc-(CN5DG)6]^+]" obsvalue=−3.57±0.35
compound="O=C(CCCC[N+]#[C][99Tc-5]([C]#[N+]CCCCC(=O)NC1C(O)OC(CO)C(O)C1O)([C]#[N+]CCCCC(=O)NC1C(O)OC(CO)C(O)C1O)([C]#[N+]CCCCC(=O)NC1C(O)OC(CO)C(O)C1O)([C]#[N+]CCCCC(=O)NC1C(O)OC(CO)C(O)C1O)[C]#[N+]CCCCC(=O)NC1C(O)OC(CO)C(O)C1O)NC1C(O)OC(CO)C(O)C1O (stereo not shown) [[^99mTc-(CN4DG)6]^+]" obsvalue=−3.84±0.06
compound="O=C(CCC[N+]#[C][99Tc-5]([C]#[N+]CCCC(=O)NC1C(O)OC(CO)C(O)C1O)([C]#[N+]CCCC(=O)NC1C(O)OC(CO)C(O)C1O)([C]#[N+]CCCC(=O)NC1C(O)OC(CO)C(O)C1O)([C]#[N+]CCCC(=O)NC1C(O)OC(CO)C(O)C1O)[C]#[N+]CCCC(=O)NC1C(O)OC(CO)C(O)C1O)NC1C(O)OC(CO)C(O)C1O (stereo not shown) [[^99mTc-(CN3DG)6]^+]" obsvalue=−4.01±0.17

# next compound below
Measured Log P (lipid-water partition coefficient), O=C(CC[N+]#[C][99Tc-5]([C]#[N+]CCC(=O)NC1C(O)OC(CO)C(O)C1O)([C]#[N+]CCC(=O)NC1C(O)OC(CO)C(O)C1O)([C]#[N+]CCC(=O)NC1C(O)OC(CO)C(O)C1O)([C]#[N+]CCC(=O)NC1C(O)OC(CO)C(O)C1O)[C]#[N+]CCC(=O)NC1C(O)OC(CO)C(O)C1O)NC1C(O)OC(CO)C(O)C1O (stereo not shown) [[^99mTc-(CN2DG)6]^+] : −4.26±0.12

* * *

System: S180-bearing mice
Experiment: Bio-distribution in tumor-bearing mice
Format: in vivo
Conditions: S180-bearing mice, tail vein, 60 min
testReadout: Lung uptake

Summary line: O=C(CCCCC[N+]#[C][99Tc-5]([C]#[N+]CCCCCC(=O)NC1C(O)OC(CO)C(O)C1O)([C]#[N+]CCCCCC(=O)NC1C(O)OC(CO)C(O)C1O)([C]#[N+]CCCCCC(=O)NC1C(O)OC(CO)C(O)C1O)([C]#[N+]CCCCCC(=O)NC1C(O)OC(CO)C(O)C1O)[C]#[N+]CCCCCC(=O)NC1C(O)OC(CO)C(O)C1O)NC1C(O)OC(CO)C(O)C1O (stereo not shown) [[^99mTc-(CN5DG)6]^+] , S180-bearing mice, reported Lung uptake = 0.59 ± 0.16 % ID/g

* * *

// reported Small intestine uptake for each item listed
Test system: S180-bearing mice
Experiment: Bio-distribution in tumor-bearing mice
Format: in vivo
Settings: S180-bearing mice, tail vein, 60 min
Could you give me the number in % ID/g? Just the number is fine.

compound="O=C(CCC[N+]#[C][99Tc-5]([C]#[N+]CCCC(=O)NC1C(O)OC(CO)C(O)C1O)([C]#[N+]CCCC(=O)NC1C(O)OC(CO)C(O)C1O)([C]#[N+]CCCC(=O)NC1C(O)OC(CO)C(O)C1O)([C]#[N+]CCCC(=O)NC1C(O)OC(CO)C(O)C1O)[C]#[N+]CCCC(=O)NC1C(O)OC(CO)C(O)C1O)NC1C(O)OC(CO)C(O)C1O (stereo not drawn) [[^99mTc-(CN3DG)6]^+]" obsvalue=0.21

Entry O=C(CCCCC[N+]#[C][99Tc-5]([C]#[N+]CCCCCC(=O)NC1C(O)OC(CO)C(O)C1O)([C]#[N+]CCCCCC(=O)NC1C(O)OC(CO)C(O)C1O)([C]#[N+]CCCCCC(=O)NC1C(O)OC(CO)C(O)C1O)([C]#[N+]CCCCCC(=O)NC1C(O)OC(CO)C(O)C1O)[C]#[N+]CCCCCC(=O)NC1C(O)OC(CO)C(O)C1O)NC1C(O)OC(CO)C(O)C1O (stereo not drawn) [[^99mTc-(CN5DG)6]^+] — recorded Small intestine uptake = 0.43

Recorded result, O=C(CCCC[N+]#[C][99Tc-5]([C]#[N+]CCCCC(=O)NC1C(O)OC(CO)C(O)C1O)([C]#[N+]CCCCC(=O)NC1C(O)OC(CO)C(O)C1O)([C]#[N+]CCCCC(=O)NC1C(O)OC(CO)C(O)C1O)([C]#[N+]CCCCC(=O)NC1C(O)OC(CO)C(O)C1O)[C]#[N+]CCCCC(=O)NC1C(O)OC(CO)C(O)C1O)NC1C(O)OC(CO)C(O)C1O (stereo not drawn) [[^99mTc-(CN4DG)6]^+] , Small intestine uptake: 0.25

* * *

Documented Spleen uptake across a set of molecules
System: S180-bearing mice
Test: Bio-distribution in tumor-bearing mice
Assay type: in vivo
Details: S180-bearing mice, tail vein, 120 min
All answers are understood in % ID/g, so give the number only.

molecule="O=C(CCC[N+]#[C][99Tc-5]([C]#[N+]CCCC(=O)NC1C(O)OC(CO)C(O)C1O)([C]#[N+]CCCC(=O)NC1C(O)OC(CO)C(O)C1O)([C]#[N+]CCCC(=O)NC1C(O)OC(CO)C(O)C1O)([C]#[N+]CCCC(=O)NC1C(O)OC(CO)C(O)C1O)[C]#[N+]CCCC(=O)NC1C(O)OC(CO)C(O)C1O)NC1C(O)OC(CO)C(O)C1O (stereo not shown) [[^99mTc-(CN3DG)6]^+]" tgt="S180-bearing mice" obsvalue=0.17
molecule="O=C(CCCC[N+]#[C][99Tc-5]([C]#[N+]CCCCC(=O)NC1C(O)OC(CO)C(O)C1O)([C]#[N+]CCCCC(=O)NC1C(O)OC(CO)C(O)C1O)([C]#[N+]CCCCC(=O)NC1C(O)OC(CO)C(O)C1O)([C]#[N+]CCCCC(=O)NC1C(O)OC(CO)C(O)C1O)[C]#[N+]CCCCC(=O)NC1C(O)OC(CO)C(O)C1O)NC1C(O)OC(CO)C(O)C1O (stereo not shown) [[^99mTc-(CN4DG)6]^+]" tgt="S180-bearing mice" obsvalue=0.11
molecule="O=C(CC[N+]#[C][99Tc-5]([C]#[N+]CCC(=O)NC1C(O)OC(CO)C(O)C1O)([C]#[N+]CCC(=O)NC1C(O)OC(CO)C(O)C1O)([C]#[N+]CCC(=O)NC1C(O)OC(CO)C(O)C1O)([C]#[N+]CCC(=O)NC1C(O)OC(CO)C(O)C1O)[C]#[N+]CCC(=O)NC1C(O)OC(CO)C(O)C1O)NC1C(O)OC(CO)C(O)C1O (stereo not shown) [[^99mTc-(CN2DG)6]^+]" tgt="S180-bearing mice" obsvalue=0.07

Consider the additional molecule presented here.
response.value for O=C(CCCCC[N+]#[C][99Tc-5]([C]#[N+]CCCCCC(=O)NC1C(O)OC(CO)C(O)C1O)([C]#[N+]CCCCCC(=O)NC1C(O)OC(CO)C(O)C1O)([C]#[N+]CCCCCC(=O)NC1C(O)OC(CO)C(O)C1O)([C]#[N+]CCCCCC(=O)NC1C(O)OC(CO)C(O)C1O)[C]#[N+]CCCCCC(=O)NC1C(O)OC(CO)C(O)C1O)NC1C(O)OC(CO)C(O)C1O (stereo not shown) [[^99mTc-(CN5DG)6]^+] (field: Spleen uptake) = 0.17
